target_desc: β 5c (Homo sapiens, UniProt P20618+P28074)
Construct: protease activity associated with the proteasome complex in cultured cells; endogenous in cells
assay_comment: Cell-Based Proteasome Activity/Selectivity Assay, Ramos cells, substrate (WLA)2Rh110
experimental_context: β5c substrate (WLA)2Rh110
pIC50: −log10 of the molar value.
endpoint: pIC50

> print(dat)
                                        mol  numeric.readout
1  C[C@@H]1NC(=O)CCc2cccc(c2)-c2cccc(c2)CC[C@@H](C(=O)N[C@@H](Cc2ccccc2)C(=O)C(=O)NCc2ccccc2)NC1=O             6.45

---

target_desc: β 1c (Homo sapiens, UniProt P28072+Q99436)
Construct: protease activity associated with the proteasome complex in cultured cells; endogenous in cells
assay_comment: Cell-Based Proteasome Activity/Selectivity Assay, Ramos cells, substrate (LLE)2 Rh110
experimental_context: β1c substrate (LLE)2 Rh110
endpoint: IC50

> print(dat)
                                        mol  endpoint   result
1  C[C@@H]1NC(=O)CCc2cccc(c2)-c2cccc(c2)CC[C@@H](C(=O)N[C@@H](Cc2ccccc2)C(=O)C(=O)NCc2ccccc2)NC1=O      IC50  > 20 µM

Cited source for all entries: patent US20150266920A1
